// data source = PubChem BioAssay (NCI)

- System: ACHN renal
- Procedure summary: NCI-60 one-dose screen, 48 h (100 = growth as untreated, 0 = no growth, -100 = all killed)
- Run parameters: 10 µM unless noted
The panel holds about 83,000 compounds, 20% with a hit somewhere; the sample as a whole holds those more often.
With a cut-off of 20%, any growth strictly below it is called YES; any growth meeting it or above is called NO.

Completed entries (count: 8):
Compound	Target desc	Label value
C=CC12CCN(CC1)C(C(O)c1ccnc3ccc(OC)cc13)C2 (centres undefined)	ACHN renal	NO
C=C1[C@@H](C)[C@H]2[C@H](Cc3ccccc3)NC(=O)[C@]23[C@@H](O)/C=C/[C@@](C)(O)C(=O)[C@@H](C)C/C=C/[C@H]3[C@@H]1O	ACHN renal	NO
COC(=O)[C@@H](C)C[C@H](Cc1ccccc1)NC(=O)c1nc([C@@H](C[C@H](C(C)C)N(C)C(=O)[C@@H](NC(=O)[C@H]2CC(=O)CCN2C)C(C)C)OC(C)=O)sc1C(C)C	ACHN renal	NO
COC1CC2c3ccccc3C1C(C)=[N+]2C (centres undefined)	ACHN renal	NO
Nc1c(F)cc(-c2nc3cc(F)ccc3[se]2)cc1F	ACHN renal	NO
COC(=O)[C@@]1(C)CC[C@]2(C)CC[C@]3(C)C4=CC=C5C(=CC(=O)C(O)=C5C)[C@]4(C)CC[C@@]3(C)[C@@H]2C1	ACHN renal	YES
COc1cc(/C=C/[N+](=O)[O-])c([N+](=O)[O-])cc1OC	ACHN renal	YES
C[N+](C)(C)Cc1cc(Cl)ccc1O	ACHN renal	NO

Field: next compound
Lab note: confirm whether the reported growth for this compound is below 20%, equality not counting. compound: O[C@H](CN1CC1)[C@@H](O)CN1CC1
NO
